- target_of_assay: Recombinant human factor D (Homo sapiens (Human), UniProt P00746)
- Sequence (P00746 26-253): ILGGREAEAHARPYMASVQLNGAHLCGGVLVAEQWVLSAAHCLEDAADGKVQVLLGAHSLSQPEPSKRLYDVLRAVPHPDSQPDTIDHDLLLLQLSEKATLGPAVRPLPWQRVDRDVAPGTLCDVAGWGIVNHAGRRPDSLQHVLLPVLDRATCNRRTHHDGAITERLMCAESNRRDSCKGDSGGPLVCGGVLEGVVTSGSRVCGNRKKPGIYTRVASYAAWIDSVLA
- assay_protocol: Human Complement Factor D Assay: Method 1
- Assay type: biochemical
- reported_conditions: 10 nM factor D, substrate Z-Lys-thiobenzyl, fluorescence readout, read-out: IC50 (μM), Factor D inhibition
experimental_endpoint: IC50 (µM)
Write the number in µM without appending the unit.

Short answer for CCNC(=O)[C@@H]1C[C@H]2C[C@H]2N1C(=O)Nc1cn(C(N)=O)c2ccccc12 [Example 24] : IC50 was 1.75

Short answer for CC(=O)c1nn(CC(=O)N2[C@@H]3C[C@@H]3C[C@H]2C(=O)NC(C)C)c2ccc(OCc3ncccn3)cc12 [Example 20] : IC50 was 0.328

Short answer for NC(=O)c1nn(CC(=O)N2[C@@H]3C[C@@H]3C[C@H]2C(=O)NCCF)c2ccccc12 [Example 41] : IC50 was 1.35

Short answer for CC(=O)c1nn(CC(=O)N2[C@@H]3C[C@@H]3C[C@H]2C(=O)NCC[Si](C)(C)C)c2cnccc12 [Example 43] : IC50 was 0.323

Short answer for C[Si](C)(C)CCNC(=O)[C@@H]1C[C@H]2C[C@H]2N1C(=O)Nc1cn(C(N)=O)c2ccccc12 [Example 22] : IC50 was 0.057

Short answer for CC(C)(C)CCNC(=O)[C@@H]1C[C@H]2C[C@H]2N1C(=O)Cn1nc(C(N)=O)c2ccccc21 [Example 1] : IC50 was 0.061

Short answer for CO[C@H]1[C@@H](C(=O)NCCC(C)(C)C)N(C(=O)Cn2nc(C(N)=O)c3cc(C)ncc32)C[C@@H]1F [Example 4] : IC50 was 0.161
